- Tested on: DLD1 NRF2-GOF
- Measurement Description: TC50 cytotoxicity; higher = less toxic
- Recorded Conditions: 72 h; CellTox Green cytotoxicity
Measured TC50 cytotoxicity accompanies every entry in the list below.

Nc1cc(COc2c(Cl)cc(C[C@H](N)C(=O)O)cc2Cl)c2oc(-c3ccccc3)nc2c1	> 5 µM
COc1cc(Nc2ncc(F)c(Nc3ccc4c(n3)NC(=O)C(C)(C)O4)n2)cc(OC)c1OC	> 10 µM
CCN(CC)Cc1ccc2cc(COC(=O)Nc3ccc(C(=O)NO)cc3)ccc2c1	> 1 µM
CCN(CC)CCN(Cc1ccc(-c2ccc(C(F)(F)F)cc2)cc1)C(=O)Cn1c(SCc2ccc(F)cc2)nc(=O)c2c1CCC2	> 1 µM
CCN(CC)C(=S)SSC(=S)N(CC)CC [Disulfiram(+CuCl2)]	> 50 µM
Nc1ncn([C@@H]2O[C@H](CO)[C@@H](O)[C@H]2O)c(=O)n1	> 10 µM
COc1cccc2c1C(=O)c1c(O)c3c(c(O)c1C2=O)C[C@@](O)(/C(CO)=N/NC(=O)CCCCCN1C(=O)C=CC1=O)C[C@@H]3O[C@H]1C[C@H](N)[C@H](O)[C@H](C)O1	> 1 µM
CC(C)NC(=O)COc1cccc(-c2nc(Nc3ccc4[nH]ncc4c3)c3ccccc3n2)c1	> 5 µM
C[C@]12C=CC(=O)C=C1CC[C@@H]1[C@@H]2[C@@H](O)C[C@@]2(C)[C@H]1CC[C@]2(O)C(=O)CO	> 10 µM
Cc1ccc(Nc2nccc(N(C)c3ccc4c(C)n(C)nc4c3)n2)cc1S(N)(=O)=O	> 10 µM

Task: Please respond with reported TC50 cytotoxicity (system DLD1 NRF2-GOF) for O=C(Nc1nc2cccc(-c3ccc(CN4CCS(=O)(=O)CC4)cc3)n2n1)C1CC1 .
Output: > 10 µM

Task: Please respond with reported TC50 cytotoxicity (system DLD1 NRF2-GOF) for Cc1c2oc3c(C)ccc(C(=O)N[C@@H]4C(=O)N[C@H](C(C)C)C(=O)N5CCC[C@H]5C(=O)N(C)CC(=O)N(C)[C@@H](C(C)C)C(=O)O[C@@H]4C)c3nc-2c(C(=O)N[C@@H]2C(=O)N[C@H](C(C)C)C(=O)N3CCC[C@H]3C(=O)N(C)CC(=O)N(C)[C@@H](C(C)C)C(=O)O[C@@H]2C)c(N)c1=O .
Output: > 1 µM

Task: Please respond with reported TC50 cytotoxicity (system DLD1 NRF2-GOF) for CC1=C(/C=C/C(C)=C/C=C/C(C)=C/C(=O)O)C(C)(C)CCC1 .
Output: > 10 µM

Task: Please respond with reported TC50 cytotoxicity (system DLD1 NRF2-GOF) for NS(=O)(=O)NCCNc1nonc1/C(=N/O)Nc1ccc(F)c(Br)c1 .
Output: > 10 µM

====

- Test system: DLD1 NRF2-GOF
- Measurement Description: TC50 cytotoxicity; higher = less toxic
- Recorded Conditions: 72 h; CellTox Green cytotoxicity
Outcome Measure: TC50 cytotoxicity

// worked examples, TC50 cytotoxicity included
O=C(c1cccc(Cl)c1F)N1CCN(Cc2cccc(Nc3nccs3)n2)CC1	1.55 µM
CN(C)c1cc2c(cc1Sc1nc3c(N)nccc3n1CCNCC(C)(C)C)OCO2	> 10 µM
Cc1ccc(=O)n(-c2ccccc2)c1	> 10 µM

Task: # return recorded TC50 cytotoxicity for entry CC(C)C[C@H](NC(=O)[C@@H](COC(C)(C)C)NC(=O)[C@H](Cc1ccc(O)cc1)NC(=O)[C@H](CO)NC(=O)[C@H](Cc1c[nH]c2ccccc12)NC(=O)[C@H](Cc1cnc[nH]1)NC(=O)[C@@H]1CCC(=O)N1)C(=O)N[C@@H](CCCNC(=N)N)C(=O)N1CCC[C@H]1C(=O)NNC(N)=O
Output: > 10 µM

====

Measured drug sensitivity score accompanies every entry in the list below.
- Tested on: DLD1 NRF2-GOF
- Measurement Description: drug sensitivity score (DSS) cytotoxicity (DSS score); higher = more toxic; extreme values may be limits of the assay
- Recorded Conditions: 72 h; CellTox Green cytotoxicity
The reply should be a number, written without any unit.

// worked examples, drug sensitivity score included
C[C@H]1C=C2C(=O)O[C@H]3CC[C@@H](C1)[C@@]23O [Galiellalactone]	0
COc1cc2c(NC3CCN(C(C)C)CC3)nc(N3CCC(F)(F)CC3)nc2cc1OCCCN1CCCC1 [UNC0642]	0.1
COCC1(CO)C(=O)C2CCN1CC2 (stereo not given) [APR-246]	0

Task: # return recorded drug sensitivity score for entry O=C(NOC[C@H](O)CO)c1ccc(F)c(F)c1Nc1ccc(I)cc1F
Output: 0

Task: # return recorded drug sensitivity score for entry CC(C)Nc1cc(-c2c[nH]c(C(=O)N[C@H](CO)c3cccc(Cl)c3)c2)c(Cl)cn1 [Ulixertinib]
Output: 0

====

- Test system: DLD1 NRF2-WT
- Recorded Conditions: 72 h; CellTiter-Glo viability
Measured EC50 viability accompanies every entry in the list below.
Enter your answer as a number in nM; do not include the unit.

// worked examples, EC50 viability included
Cc1cc(F)c(C(=O)Nc2cccc(-c3nncn3C(C)C)n2)cc1-n1cnc(C2CC2)c1 [Selonsertib]	13.3
Nc1ccccc1NC(=O)c1ccc(CNc2nccc(-c3cccnc3)n2)cc1 [Mocetinostat]	3290

Task: # return recorded EC50 viability for entry O=C(Nc1c[nH]nc1-c1nc2ccc(CN3CCOCC3)cc2[nH]1)NC1CC1 [AT9283]
Output: 55.5

Task: # return recorded EC50 viability for entry Cn1cc(-c2[nH]c3cc(NC(=O)[C@H](N)C4CCCCC4)cc4c3c2C=NNC4=O)cn1
Output: 878

Task: # return recorded EC50 viability for entry Cn1c(Nc2ccc(C(F)(F)F)cc2)nc2cc(Oc3ccnc(-c4ncc(C(F)(F)F)[nH]4)c3)ccc21 [NVP-RAF265]
Output: 191

Task: # return recorded EC50 viability for entry CC[C@H](CC#N)OC(=O)N[C@@H](C)c1cccc(NC(=O)Nc2ccc(-c3cnco3)c(OC)c2)c1 [AVN944]
Output: 169

====

- System: DLD1 NRF2-GOF
- Measurement Description: drug sensitivity score (DSS) cytotoxicity (DSS score); higher = more toxic; extreme values may be limits of the assay
- Recorded Conditions: 72 h; CellTox Green cytotoxicity
Outcome Measure: drug sensitivity score
The reply should be a number, written without any unit.

// worked examples, drug sensitivity score included
Cc1cnc(Nc2ccc(OCCN3CCCC3)cc2)nc1Nc1cccc(S(=O)(=O)NC(C)(C)C)c1	4.3
CCN(CC)CCNC(=O)c1c(C)[nH]c(/C=C2\C(=O)Nc3ccc(-c4csc(-c5ccccc5)n4)cc32)c1C	0
CCOc1ccccc1-n1c(C(C)N2CCN(C(=O)COc3ccc(Cl)cc3)CC2)nc2ccccc2c1=O (stereo not drawn)	0
CN[C@@H]1C[C@H]2O[C@@](C)([C@@H]1OC)n1c3ccccc3c3c4c(c5c6ccccc6n2c5c31)C(=O)N[C@H]4O	5
COCC[n+]1c2c(n(Cc3cnccn3)c1C)C(=O)c1ccccc1C2=O [Sepantronium bromide]	30.9

Task: # return recorded drug sensitivity score for entry CCN(CC)Cc1ccc2cc(COC(=O)Nc3ccc(C(=O)NO)cc3)ccc2c1
Output: 0

Task: # return recorded drug sensitivity score for entry COc1ccc(-c2ccc3c(N4CCOC[C@@H]4C)nc(N4CCOC[C@@H]4C)nc3n2)cc1CO
Output: 0

Task: # return recorded drug sensitivity score for entry O=c1[nH]c(=O)n([C@H]2C[C@H](O)[C@@H](CO)O2)cc1F
Output: 0

====

- System: DLD1 NRF2-GOF
- Measurement Description: drug sensitivity score (DSS) cytotoxicity (DSS score); higher = more toxic; extreme values may be limits of the assay
- Recorded Conditions: 72 h; CellTox Green cytotoxicity
Outcome Measure: drug sensitivity score
The reply should be a number, written without any unit.

// worked examples, drug sensitivity score included
O=C(Nc1cccc(NC(=O)c2cccc(O)c2O)c1)c1cccc(O)c1O	0
Nc1ccccc1NC(=O)c1ccc(CNc2nccc(-c3cccnc3)n2)cc1	0

Task: # return recorded drug sensitivity score for entry CCc1c2c(nc3ccc(O)cc13)-c1cc3c(c(=O)n1C2)COC(=O)[C@]3(O)CC
Output: 2

Task: # return recorded drug sensitivity score for entry O=c1[nH]cc(F)c(=O)[nH]1
Output: 0

Task: # return recorded drug sensitivity score for entry COc1ncc(-c2ccc3nccc(-c4ccnnc4)c3c2)cc1NS(=O)(=O)c1ccc(F)cc1F
Output: 0

Task: # return recorded drug sensitivity score for entry CC(=O)O[C@H]1C(=O)[C@@]2(C)[C@H]([C@H](OC(=O)c3ccccc3)[C@]3(O)C[C@H](OC(=O)[C@H](O)[C@@H](NC(=O)c4ccccc4)c4ccccc4)C(C)=C1C3(C)C)[C@]1(OC(C)=O)CO[C@@H]1C[C@@H]2O
Output: 4.7

Task: # return recorded drug sensitivity score for entry CC1(C)CC[C@]2(NC(=O)C(C)(F)F)CC[C@]3(C)[C@H](C(=O)C=C4[C@@]5(C)C=C(C#N)C(=O)C(C)(C)[C@@H]5CC[C@]43C)[C@@H]2C1
Output: 0
